# assayName: Solubility in chloroform at 25 deg. C. (model of skin lipids)
# Type: physicochemical
# recordedConditions: at 25 deg. C.; average of triplicate
Counter-ions that a name gives are not always drawn.
Entries and their Solubility in chloroform values follow.
Provide only the numeric value, understood in µg/mL.

NC(Cc1ccccc1)C(=O)O (stereo not shown) [Phe. hydrochloride] = 58.26

[in] Look up Solubility in chloroform: NCC(CC(=O)O)c1ccc(Cl)cc1 (stereo not shown) [Bac. fumarate]
[out] 0.627

[in] Look up Solubility in chloroform: NCC(CC(=O)O)c1ccc(Cl)cc1 (stereo not shown) [Bac. lithium salt]
[out] 6.93

[in] Look up Solubility in chloroform: NCC(CC(=O)O)c1ccc(Cl)cc1 (stereo not shown) [Bac. methane sulfonate, baclofen methane sulfonate]
[out] 0.087

---

Entries and their Solubility in ethanol values follow.
# assayName: Solubility in ethanol at 25 deg. C.
# Assay type: physicochemical
# recordedConditions: average of triplicate
Structures can show the parent of a compound that is named as a salt.
// return the numeric value with its unit appended

[in] Look up Solubility in ethanol: NCC(CC(=O)O)c1ccc(Cl)cc1 (stereo not shown) [Bac. lithium salt]
[out] 57.8373 mg/mL

[in] Look up Solubility in ethanol: NCCCC[C@H](N[C@H]1CCc2ccccc2N(CC(=O)O)C1=O)C(=O)O [CGS 16617. monomaleate]
[out] 0.24882 mg/mL

[in] Look up Solubility in ethanol: NCC(CC(=O)O)c1ccc(Cl)cc1 (stereo not shown) [Bac. sodium salt]
[out] 529.056 mg/mL

[in] Look up Solubility in ethanol: NCCCC[C@H](N[C@H]1CCc2ccccc2N(CC(=O)O)C1=O)C(=O)O [CGS 16617, reference compound]
[out] 0.1907 mg/mL

[in] Look up Solubility in ethanol: NCC(CC(=O)O)c1ccc(Cl)cc1 (stereo not shown) [Baclofen (Bac), Baclofen, reference compound]
[out] 1.1441 mg/mL

[in] Look up Solubility in ethanol: NC(Cc1ccccc1)C(=O)O (stereo not shown) [Phe. hydrochloride]
[out] 107.1459 mg/mL

---

# assayName: Solubility in water at 25 deg. C.
# Format: physicochemical
# recordedConditions: water, average of triplicate
# Description: The solubility in water is given as a model of polar solvents, while the octanol and chloroform are given as models for skin lipids.
assayMetric: solubility (mg/mL)
Provide only the numeric value, understood in mg/mL.

[in] Look up solubility: N[C@@H](Cc1ccccc1)C(=O)O [Phenylalanine (Phe), Phenylalanine, reference compound]
[out] 25.3

---

Entries and their R.E. (relative enhancement) of permeation rate through polyurethane values follow.
# assayName: Permeation rate through polyurethane
# Assay type: physicochemical
# recordedConditions: relative to free zwitterion
Where a name gives a salt, the structure may show the parent alone.
Format: numeric value only, no unit, no commentary.

Below: 3 compounds and their reported R.E. (relative enhancement) of permeation rate through polyurethane.
NCC(CC(=O)O)c1ccc(Cl)cc1 (centres unmarked) [Bac. hydrobromide] = 138.89
NCC(CC(=O)O)c1ccc(Cl)cc1 (centres unmarked) [Bac. hydrochloride] = 51.45
NCC(CC(=O)O)c1ccc(Cl)cc1 (centres unmarked) [Bac. potassium salt] = 110.49

[in] Look up R.E. (relative enhancement) of permeation rate through polyurethane: NC(Cc1ccccc1)C(=O)O (centres unmarked) [Phe. hydrochloride]
[out] 789.70

[in] Look up R.E. (relative enhancement) of permeation rate through polyurethane: NCC(CC(=O)O)c1ccc(Cl)cc1 (centres unmarked) [Bac. pentane sulfonate]
[out] 41.30

---

Entries and their Permeation rate through polyurethane values follow.
# assayName: Permeation rate through polyurethane
# Assay type: physicochemical
# recordedConditions: average of triplicate
Structures can show the parent of a compound that is named as a salt.
Provide only the numeric value, understood in ug/cm 2/hr.

Below: 2 compounds and their reported Permeation rate through polyurethane.
NCC(CC(=O)O)c1ccc(Cl)cc1 (stereo not drawn) [Bac. hydrochloride] = 273.7
NC(Cc1ccccc1)C(=O)O (stereo not drawn) [Phe. hydrochloride] = 1516.23

Turning to the following compound.
[in] Look up Permeation rate through polyurethane: N[C@@H](Cc1ccccc1)C(=O)O [Phenylalanine (Phe), Phenylalanine, reference compound]
[out] 1.92

---

# assayName: Solubility in chloroform at 25 deg. C. (model of skin lipids)
# Type: physicochemical
# recordedConditions: at 25 deg. C.; average of triplicate
Where a name gives a salt, the structure may show the parent alone.
Please use true (1) whenever Solubility in chloroform is not below 10 µg/mL, and false (0) whenever it is.

A selection of reference data follows.
NCC(CC(=O)O)c1ccc(Cl)cc1 (stereo not drawn) [Bac. hydrobromide] = true (1)
NCC(CC(=O)O)c1ccc(Cl)cc1 (stereo not drawn) [Bac. pentane sulfonate] = true (1)
NCC(CC(=O)O)c1ccc(Cl)cc1 (stereo not drawn) [Bac. hydrofluoride] = false (0)
NCC(CC(=O)O)c1ccc(Cl)cc1 (stereo not drawn) [Baclofen (Bac), Baclofen, reference compound] = false (0)
NCC(CC(=O)O)c1ccc(Cl)cc1 (stereo not drawn) [Bac. hydrochloride] = false (0)

Shifting focus to the molecule that follows.
[in] Confirm if Solubility in chloroform reported for the molecule NCC(CC(=O)O)c1ccc(Cl)cc1 (stereo not drawn) [Bac. ethane sulfonate] is 10 µg/mL or above.
[out] true (1)

---

Entries and their Solubility in ethanol values follow.
# assayName: Solubility in ethanol at 25 deg. C.
# Type: physicochemical
# recordedConditions: average of triplicate
Structures can show the parent of a compound that is named as a salt.
Provide only the numeric value, understood in mg/mL.

Below: 3 compounds and their reported Solubility in ethanol.
NCCCC[C@H](N[C@H]1CCc2ccccc2N(CC(=O)O)C1=O)C(=O)O [CGS 16617. dihydrobromide] = 45.0269
O=C(O)CN1C(=O)[C@@H](N[C@@H](CCc2ccccc2)C(=O)O)CCc2ccccc21 [CGS 14831. dilithium salt] = 27.97561
NCC(CC(=O)O)c1ccc(Cl)cc1 (stereo not shown) [Bac. hydrofluoride] = 1.79088

Turning to the following compound.
[in] Look up Solubility in ethanol: O=C(O)CN1C(=O)[C@@H](N[C@@H](CCc2ccccc2)C(=O)O)CCc2ccccc21 [CGS 14831. dipotassium salt]
[out] 34.19351
